Collected MIC values appear next to each entry.
system: Enterococcus faecalis; assay: Antibacterial activity against Enterococcus faecalis ATCC 29212 by broth microdilution method; type: functional
METRIC NAME: MIC (µg/mL)

| SMILES DATA | OBSERVED VALUE |
| --- | --- |
| CCCCCCCCCC(=O)N[C@@H](Cc1c[nH]c2ccccc12)C(=O)N[C@H](CC(N)=O)C(=O)N[C@@H](CC(=O)O)C(=O)N[C@@H]1C(=O)NCC(=O)N[C@@H](CCCN)C(=O)N[C@@H](CC(=O)O)C(=O)N[C@H](C)C(=O)N[C@@H](CC(=O)O)C(=O)NCC(=O)N[C@H](CO)C(=O)N[C@@H]([C@@H](C)CC(=O)O)C(=O)N[C@@H](CC(=O)c2ccccc2N)C(=O)O[C@@H]1C | 4 |
| CCCCCCCCCC(=O)N[C@@H](Cc1c[nH]c2ccccc12)C(=O)N[C@@H](CC(N)=O)C(=O)N[C@@H](CC(=O)O)C(=O)N[C@@H]1C(=O)N(C)CC(=O)N[C@@H](CCCN)C(=O)N[C@@H](CC(=O)O)C(=O)N[C@H](C)C(=O)N[C@@H](CC(=O)O)C(=O)NCC(=O)N[C@H](CO)C(=O)N[C@@H]([C@H](C)CC(=O)O)C(=O)N[C@@H](CC(=O)c2ccccc2N)C(=O)O[C@@H]1C | 8 |
| CCCCCCCCCC(=O)N[C@@H](Cc1cn(C)c2ccccc12)C(=O)N[C@@H](CC(N)=O)C(=O)N[C@@H](CC(=O)O)C(=O)N[C@@H]1C(=O)NCC(=O)N[C@@H](CCCN)C(=O)N[C@@H](CC(=O)O)C(=O)N[C@H](C)C(=O)N[C@@H](CC(=O)O)C(=O)NCC(=O)N[C@H](CO)C(=O)N[C@@H]([C@H](C)CC(=O)O)C(=O)N[C@@H](CC(=O)c2ccccc2N)C(=O)O[C@@H]1C | 2 |
| CCCCCCCCCC(=O)N[C@@H](Cc1c[nH]c2ccccc12)C(=O)N[C@H](CC(N)=O)C(=O)N[C@@H](CC(=O)O)C(=O)N[C@@H]1C(=O)NCC(=O)N[C@@H](CCCN)C(=O)N[C@@H](CC(=O)O)C(=O)N[C@H](C)C(=O)N[C@@H](CC(=O)O)C(=O)NCC(=O)N[C@H](CO)C(=O)N[C@@H]([C@H](C)CC(=O)O)C(=O)N[C@@H](CC(=O)c2ccccc2NC)C(=O)O[C@@H]1C | 1 |

----------
test system: Staphylococcus aureus; experiment: Antibacterial activity against methicillin-resistant Staphylococcus aureus SA86 by broth microdilution method; type: functional
Reported MIC values for a set of compounds

| SMILES DATA | TESTED TARGET | UNIT | MIC |
| --- | --- | --- | --- |
| CCCCCCCCCC(=O)N[C@@H](Cc1c[nH]c2ccccc12)C(=O)N[C@H](CC(N)=O)C(=O)N[C@@H](CC(=O)O)C(=O)N[C@@H]1C(=O)NCC(=O)N[C@@H](CCCN)C(=O)N[C@@H](CC(=O)O)C(=O)N[C@H](C)C(=O)N[C@@H](CC(=O)O)C(=O)NCC(=O)N[C@H](CO)C(=O)N[C@@H]([C@H](C)CC(=O)O)C(=O)N[C@@H](CC(=O)c2ccccc2NC)C(=O)O[C@@H]1C | Staphylococcus aureus | µg/mL | 0.25 |
| CCCCCCCCCC(=O)N[C@@H](Cc1c[nH]c2ccccc12)C(=O)N[C@H](CC(N)=O)C(=O)N[C@@H](CC(=O)O)C(=O)N[C@@H]1C(=O)NCC(=O)N[C@@H](CCCN)C(=O)N[C@@H](CC(=O)O)C(=O)N[C@H](C)C(=O)N[C@@H](CC(=O)O)C(=O)NCC(=O)N[C@H](CO)C(=O)N[C@@H]([C@@H](C)CC(=O)O)C(=O)N[C@@H](CC(=O)c2ccccc2N)C(=O)O[C@@H]1C | Staphylococcus aureus | µg/mL | 0.5 |
| CCCCCCCCCC(=O)N[C@@H](Cc1cn(C)c2ccccc12)C(=O)N[C@@H](CC(N)=O)C(=O)N[C@@H](CC(=O)O)C(=O)N[C@@H]1C(=O)NCC(=O)N[C@@H](CCCN)C(=O)N[C@@H](CC(=O)O)C(=O)N[C@H](C)C(=O)N[C@@H](CC(=O)O)C(=O)NCC(=O)N[C@H](CO)C(=O)N[C@@H]([C@H](C)CC(=O)O)C(=O)N[C@@H](CC(=O)c2ccccc2N)C(=O)O[C@@H]1C | Staphylococcus aureus | µg/mL | 0.5 |
| CCCCCCCCCC(=O)N[C@@H](Cc1c[nH]c2ccccc12)C(=O)N[C@@H](CC(N)=O)C(=O)N[C@@H](CC(=O)O)C(=O)N[C@@H]1C(=O)N(C)CC(=O)N[C@@H](CCCN)C(=O)N[C@@H](CC(=O)O)C(=O)N[C@H](C)C(=O)N[C@@H](CC(=O)O)C(=O)NCC(=O)N[C@H](CO)C(=O)N[C@@H]([C@H](C)CC(=O)O)C(=O)N[C@@H](CC(=O)c2ccccc2N)C(=O)O[C@@H]1C | Staphylococcus aureus | µg/mL | 0.5 |
